Origin of values: the supplement of paper PMC10127200

System: HEPG2
Assay: Euclidean distance of Cell Painting phenotypic profile (signed KS, 77 features) to DMSO centroid (dimensionless distance); higher = stronger phenotypic change vs DMSO (phenoactivity)
Details: 48 h; 5 or 10 uM (library dependent)
reported_metric: Euclidean distance
Enter a number only.

Per the record, CC(O)(CS(=O)(=O)c1ccc(F)cc1)C(=O)Nc1ccc(C#N)c(C(F)(F)F)c1 (configuration not stated) [Bicalutamide] has Euclidean distance of 0.832

Per the record, COc1cc(OC)c(OC)cc1C=O [Asaraldehyde] has Euclidean distance of 1.73

Per the record, "O=C(CBr)N1CC([N+](=O)[O-])([N+](=O)[O-])C1" has Euclidean distance of 0.776

Per the record, CC1(C)CC(O)CC(C)(C)N1[O] [Tempol] has Euclidean distance of 0.827

Per the record, O=c1cccc2n1C[C@@H]1CNC[C@H]2C1 [Cytisine] has Euclidean distance of 1.09

Per the record, CC[C@@H]1/C=C/C=C/C[C@H](C)[C@H](O)[C@](C)(O)C(=O)[C@H](C)[C@@H](O)[C@H](C)C(=O)[C@H](C)[C@@H](O)[C@H](C)/C=C/C(=O)O[C@H]2[C@@H](C)[C@@H](CC1)O[C@@]1(CC[C@@H](C)[C@@H](C[C@H](C)O)O1)[C@@H]2C [Oligomycin A] has Euclidean distance of 3.19

Per the record, CCOC(=O)c1cncn1[C@H](C)c1ccccc1 [Etomidate] has Euclidean distance of 1.08

Per the record, CC(C)(C)c1cc(C=C(C#N)C#N)cc(C(C)(C)C)c1O [Tyrphostin 9] has Euclidean distance of 0.766

Per the record, O=c1ccc2ccc3occc3c2o1 [Isopsoralen] has Euclidean distance of 0.495

Per the record, COc1cc2c(c(OC)c1OC)-c1ccc(OC)c(=O)cc1[C@@H](NC(C)=O)CC2 [Colchicine] has Euclidean distance of 3.8

Per the record, C[N+](C)(C)CCCCCCCCCC[N+](C)(C)C [Decamethonium Bromide] has Euclidean distance of 0.483

Per the record, CC[C@@]1(O)C[C@H](O[C@H]2C[C@H](N(C)C)[C@H](O)[C@H](C)O2)c2c(cc3c(c2O)C(=O)c2c(O)cccc2C3=O)[C@H]1C(=O)OC [Aclacinomycin] has Euclidean distance of 3.76

Per the record, CC1(C)C(C=C(Cl)Cl)C1C(=O)OCc1cccc(Oc2ccccc2)c1 (configuration not stated) [Permethrin] has Euclidean distance of 0.999

Per the record, C[C@]12CC[C@H](O)C[C@@H]1CC[C@@H]1[C@@H]2CC[C@]2(C)C(=O)CC[C@@H]12 [Epiandrosterone] has Euclidean distance of 0.785

Per the record, N#Cc1ccc(N2CCC[C@@H]2[C@@H](O)C(F)(F)F)cc1C(F)(F)F [Ligandrol (LGD-4033. VK-5211)] has Euclidean distance of 0.87

Per the record, NCCCNCCSP(=O)(O)O [Amifostine] has Euclidean distance of 1.22

Per the record, C=CN1CCCC1=O.II [Povidone iodine] has Euclidean distance of 1.94

---

Test system: 786-O
Experiment: Euclidean distance of Cell Painting phenotypic profile (signed KS, 77 features) to DMSO centroid (dimensionless distance); higher = stronger phenotypic change vs DMSO (phenoactivity)
Conditions: 48 h; 5 or 10 uM (library dependent)
Counter-ions that a name gives are not always drawn.
reported_metric: Euclidean distance
Enter a number only.

Per the record, O=C([O-])C(Cl)Cl.[Na+] [Sodium dichloroacetate (DCA)] has Euclidean distance of 0.79

Per the record, COc1ccc(C(=O)O)cc1OC [Veratric acid] has Euclidean distance of 0.978

Per the record, CCC1=C[C@H]2CN3CCc4c([nH]c5ccccc45)[C@](C(=O)OC)(C2)[C@H]13 [Catharanthine] has Euclidean distance of 1.45

Per the record, C[C@]12N[C@H](Cc3ccccc31)c1ccccc12 [MK-801 (Dizocilpine)] has Euclidean distance of 0.525

Per the record, CC(C)(C)c1cc(C=C(C#N)C#N)cc(C(C)(C)C)c1O [Tyrphostin 9] has Euclidean distance of 3

Per the record, CC(C)[N+](C)(CCC(C(N)=O)(c1ccccc1)c1ccccc1)C(C)C [Isopropamide Iodide] has Euclidean distance of 1.26

Per the record, COc1ccc2c(c1)[nH]c1c(C)nccc12 [Harmine hydrochloride] has Euclidean distance of 1.41

Per the record, COc1ccc2c3c([nH]c2c1)C(C)=NCC3 [Harmaline] has Euclidean distance of 1.25

Per the record, CNCC(O)c1ccc(O)cc1 (centres undefined) [Synephrine HCl] has Euclidean distance of 0.581

---

System: DU145
Assay: Euclidean distance of Cell Painting phenotypic profile (signed KS, 77 features) to DMSO centroid (dimensionless distance); higher = stronger phenotypic change vs DMSO (phenoactivity)
Conditions: 48 h; 5 or 10 uM (library dependent)
Structures can show the parent of a compound that is named as a salt.
Class (by Euclidean distance) -- low bracket: < 0.8; middle bracket: ≥ 0.8 and < 1; high bracket: ≥ 1

## Input Consider "C/C=C(\C)C(=O)N[C@@H](c1ccccc1)[C@@H](O)C(=O)O[C@H]1C[C@@]2(O)[C@@H](OC(=O)c3ccccc3)[C@@H]3[C@]4(OC(C)=O)CO[C@@H]4C[C@H](O)[C@@]3(C)C(=O)[C@H](OC(C)=O)C(=C1C)C2(C)C" . To which Euclidean distance class does it belong?
## Output high bracket

## Input Consider "C[C@@H]1O[C@@H](O[C@H]2C[C@@H](O)[C@]3(CO)[C@H]4[C@H](O)C[C@]5(C)[C@@H](C6=CC(=O)OC6)CC[C@]5(O)[C@@H]4CC[C@]3(O)C2)[C@H](O)[C@H](O)[C@H]1O" . To which Euclidean distance class does it belong?
## Output high bracket

## Input Consider CC(C)OC(=O)[C@H](C)N[P@](=O)(CO[C@H](C)Cn1cnc2c(N)ncnc21)Oc1ccccc1 [Tenofovir Alafenamide (GS-7340)] . To which Euclidean distance class does it belong?
## Output high bracket

## Input Consider "Cn1c(CCCC(=O)O)nc2cc(N(CCCl)CCCl)ccc21" . To which Euclidean distance class does it belong?
## Output low bracket

## Input Consider CN1[C@@H]2C[C@@H](OC(=O)[C@H](CO)c3ccccc3)C[C@H]1[C@@H]1O[C@@H]12 [Scopolamine HBr] . To which Euclidean distance class does it belong?
## Output low bracket

## Input Consider CN1[C@@H]2C[C@@H](OC(=O)[C@H](CO)c3ccccc3)C[C@H]1[C@@H]1O[C@@H]12 [Scopolamine HBr trihydrate] . To which Euclidean distance class does it belong?
## Output high bracket

## Input Consider "CC[C@@H]1/C=C/C=C/C[C@H](C)[C@H](O)[C@](C)(O)C(=O)[C@H](C)[C@@H](O)[C@H](C)C(=O)[C@H](C)[C@@H](O)[C@H](C)/C=C/C(=O)O[C@H]2[C@@H](C)[C@@H](CC1)O[C@@]1(CC[C@@H](C)[C@@H](C[C@H](C)O)O1)[C@@H]2C" . To which Euclidean distance class does it belong?
## Output high bracket

## Input Consider Cc1cc(C2=NOC(c3cc(Cl)cc(Cl)c3)(C(F)(F)F)C2)ccc1C(=O)NCC(=O)NCC(F)(F)F (stereo unspecified) . To which Euclidean distance class does it belong?
## Output high bracket

## Input Consider CN1[C@H]2C[C@H](OC(=O)[C@H](CO)c3ccccc3)C[C@@H]1[C@@H](O)C2 [Anisodamine Hydrobromide] . To which Euclidean distance class does it belong?
## Output high bracket

## Input Consider "O=C(CBr)N1CC([N+](=O)[O-])([N+](=O)[O-])C1" . To which Euclidean distance class does it belong?
## Output middle bracket

## Input Consider C[C@@]12N[C@@H](Cc3ccccc31)c1ccccc12 [(-)-MK 801 Maleate] . To which Euclidean distance class does it belong?
## Output high bracket

## Input Consider "CCN(CC)C(=O)c1ccc(C2=CC3(CCNCC3)Oc3cccc(O)c32)cc1" . To which Euclidean distance class does it belong?
## Output middle bracket

## Input Consider COC(=O)C1=CCCN(C)C1 [Arecoline] . To which Euclidean distance class does it belong?
## Output middle bracket

## Input Consider "CCC(=O)CCCCC[C@@H]1NC(=O)[C@H]2CCCCN2C(=O)[C@H]([C@@H](C)CC)NC(=O)[C@H](Cc2cn(OC)c3ccccc23)NC1=O" . To which Euclidean distance class does it belong?
## Output high bracket

## Input Consider N.N.[Cl][Pt][Cl] [Cisplatin] . To which Euclidean distance class does it belong?
## Output middle bracket

## Input Consider "Cc1cccc([C@H](C)c2c[nH]cn2)c1C" . To which Euclidean distance class does it belong?
## Output low bracket

## Input Consider CCN(CC)CCOC(=O)C(O)(c1ccccc1)c1ccccc1 [Benactyzine hydrochloride] . To which Euclidean distance class does it belong?
## Output high bracket

## Input Consider "O=C1C=C2C=C[C@@H]3C[C@@]2(O1)[C@H]1CCCCN31" . To which Euclidean distance class does it belong?
## Output high bracket

## Input Consider C[N+](C)(C)CCCCCCCCCC[N+](C)(C)C [Decamethonium Bromide] . To which Euclidean distance class does it belong?
## Output low bracket

## Input Consider "C[C@H]1CC(=O)C[C@@H]2CC[C@H]3[C@@H]4CC[C@H](O)[C@@]4(C)CC[C@@H]3[C@]21C" . To which Euclidean distance class does it belong?
## Output high bracket

## Input Consider CC(C)[C@]12O[C@H]1[C@@H]1O[C@]13[C@]1(O[C@H]1C[C@H]1C4=C(CC[C@@]13C)C(=O)OC4)[C@@H]2O [Triptolide (PG490)] . To which Euclidean distance class does it belong?
## Output high bracket

## Input Consider "Cc1cc(O)ccc1Cl" . To which Euclidean distance class does it belong?
## Output low bracket

## Input Consider "CN1[C@@H]2CC[C@H]1C[C@@H](OC(=O)[C@H](CO)c1ccccc1)C2" . To which Euclidean distance class does it belong?
## Output low bracket

## Input Consider Cc1cccc(C(C)c2c[nH]cn2)c1C (stereo unspecified) [Medetomidine HCl] . To which Euclidean distance class does it belong?
## Output middle bracket
